Sourced from patent US20250205384A1

protocol-details: Thickness of lipid membrane from SEM observation image
Format: physicochemical
condition-notes: lipid on PLLA fiber sheet, SEM ×5,000 (FIGS. 17 to 20)

molecule	display-unit	thickness of the lipid membrane
CCCCCCCCCCCCCCCCOC(=O)CCC(NC(=O)CCC(=O)O)C(=O)OCCCCCCCCCCCCCCCC [DHSG, 1,5-Dihexadecyl-N-Succinyl-L-Glutamate]	nm	131
CCCCCCCCCCCCCCCCOC(=O)CCC(NC(=O)CCC(=O)NC(CC(=O)O)C(=O)O)C(=O)OCCCCCCCCCCCCCCCC (stereo not shown)	nm	153
CCCCCCCCCCCCCCCCOC(=O)CCC(NC(=O)CCC(=O)NC(CCC(=O)O)C(=O)O)C(=O)OCCCCCCCCCCCCCCCC (stereo not shown)	nm	187
CCCCCCCCCCCCCCCCOC(=O)CCC(NC(=O)CCC(=O)NC(CCC(=O)NC(CC(=O)O)C(=O)O)C(=O)NC(CC(=O)O)C(=O)O)C(=O)OCCCCCCCCCCCCCCCC (stereo not shown)	nm	124
